Tested on: mice
Test: Rotarod neurotoxicity screening
Assay type: in vivo, male Swiss albino mice
Details: at the highest dose (300 mg/kg)
attribute_measured: Neurotoxicity (rotarod test), result in words

- CCCC(CCC)C(=O)O [Sodium valproate, reference compound]: no neurotoxicity
- CC(=O)Nc1nnc(S(N)(=O)=O)s1 [Acetazolamide, reference compound]: no neurotoxicity

----------
Observed pIC50, system human carbonic anhydrase II (Homo sapiens, UniProt P00918).
Please keep in mind that pIC50 is minus log10 of the molar concentration; only the number is needed.

input: pIC50 for COc1ccc(C(=O)Nc2nncs2)cc1OCCN1CCOCC1 [Compound 7a] ?
output: 6.01

input: What pIC50 value was documented for this compound, COc1ccc(C(=O)Nc2nncs2)cc1OCCN1CCCC1 [Compound 7c] ?
output: 6.16

input: For the compound shown here, CCN(CC)CCOc1cc(C(=O)Nc2nncs2)ccc1OC [Compound 7d] , give the reported pIC50.
output: 6.32

input: Quick one: pIC50 of COc1ccc(C(=O)Nc2nncs2)cc1OCCN(C)C [Compound 7e] ?
output: 6.28

input: Please give the measured pIC50 for this compound: COc1ccc(C(=O)Nc2nncs2)cc1OCCN1CCCCC1 [Compound 7b]
output: 6.13

input: Look at this compound and give its reported pIC50. CN(C)CCOc1cccc(C(=O)Nc2nncs2)c1 [Compound 6e]
output: 6.64

input: Data request, read-out pIC50, for CCN(CC)CCOc1cccc(C(=O)Nc2nncs2)c1 [Compound 6d]
output: 7.10

----------
Give measured pIC50 for each item. Keep answers brief.
For clarity, pIC50 is expressed as the negative log10 of concentration in mol/L.

input: API: value(readout= pIC50, system= human carbonic anhydrase IX (Homo sapiens), query= O=C(Nc1nncs1)c1cccc(OCCN2CCOCC2)c1 [Compound 6a] )
output: 6.40

input: Reported pIC50 for human carbonic anhydrase IX (Homo sapiens), given COc1ccc(C(=O)Nc2nncs2)cc1OCCN1CCCC1 [Compound 7c] ?
output: 6.19

input: Request body: readout pIC50, system human carbonic anhydrase IX (Homo sapiens), query O=C(Nc1nncs1)c1cccc(OCCN2CCCCC2)c1 [Compound 6b] . Return the value.
output: 6.64

input: Form entry - test system: human carbonic anhydrase IX (Homo sapiens); read-out: pIC50; molecule: CN(C)CCOc1cccc(C(=O)Nc2nncs2)c1 [Compound 6e]
output: 6.68

input: Observed pIC50 on human carbonic anhydrase IX (Homo sapiens) for COc1ccc(C(=O)Nc2nncs2)cc1OCCN(C)C [Compound 7e] , please.
output: 6.21

input: Test system human carbonic anhydrase IX (Homo sapiens); read-out pIC50; what value for CCN(CC)CCOc1cc(C(=O)Nc2nncs2)ccc1OC [Compound 7d] ?
output: 6.55

input: API: value(readout= pIC50, system= human carbonic anhydrase IX (Homo sapiens), query= COc1ccc(C(=O)Nc2nncs2)cc1OCCN1CCCCC1 [Compound 7b] )
output: 6.14

input: Record CCN(CC)CCOc1cccc(C(=O)Nc2nncs2)c1 [Compound 6d] : what is its pIC50 with human carbonic anhydrase IX (Homo sapiens)?
output: 7.00

input: Which measured pIC50 belongs to COc1ccc(C(=O)Nc2nncs2)cc1OCCN1CCOCC1 [Compound 7a] , tested on human carbonic anhydrase IX (Homo sapiens)?
output: 6.06

input: Give recorded pIC50 with human carbonic anhydrase IX (Homo sapiens) for the following molecule: O=C(Nc1nncs1)c1cccc(OCCN2CCCC2)c1 [Compound 6c]
output: 6.33

----------
System: PTZ-induced seizures
Experiment: Subcutaneous pentylenetetrazole (sc-PTZ) test;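 further: percent reduction of the test group versus the control group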
Type: in vivo, male Swiss albino mice
Details: 30 mg/kg oral, 0.5 h
attribute_measured: % protection Sc-PTZ 0.5 h (%)
Output spec: scalar in %, unitless text.

input: Please state recorded % protection Sc-PTZ 0.5 h (tested on PTZ-induced seizures) of CN(C)CCOc1cccc(C(=O)Nc2nncs2)c1
output: 39.02

input: Report % protection Sc-PTZ 0.5 h for COc1ccc(C(=O)Nc2nncs2)cc1OCCN(C)C tested on PTZ-induced seizures.
output: 34.26

input: Which measured % protection Sc-PTZ 0.5 h belongs to CCN(CC)CCOc1cc(C(=O)Nc2nncs2)ccc1OC , tested on PTZ-induced seizures?
output: 42.43

input: Report % protection Sc-PTZ 0.5 h for CCN(CC)CCOc1cccc(C(=O)Nc2nncs2)c1 tested on PTZ-induced seizures.
output: 38.59

----------
System: MES-induced seizures
Assay: Maximal electroshock-induced seizure (MES) test;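 on % protection MES 4 h: percent reduction of the test group versus the control group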
Assay type: in vivo, male Swiss albino mice
Details: 300 mg/kg oral, 4 h
Would you mind telling me the reported % protection MES 4 h of each entry?
Use % as the unit, but write only the number.

input: Quick one: % protection MES 4 h of CCN(CC)CCOc1cc(C(=O)Nc2nncs2)ccc1OC ?
output: 76.92

input: Given CN(C)CCOc1cccc(C(=O)Nc2nncs2)c1 , state its recorded % protection MES 4 h.
output: 73.83

input: Given the compound COc1ccc(C(=O)Nc2nncs2)cc1OCCN1CCOCC1 , what is its reported % protection MES 4 h?
output: 40

input: Which % protection MES 4 h value is on record for COc1ccc(C(=O)Nc2nncs2)cc1OCCN1CCCCC1 ?
output: 47.69

input: Give the measured % protection MES 4 h of O=C(Nc1nncs1)c1cccc(OCCN2CCCCC2)c1 .
output: 50.76

input: For the compound shown here, COc1ccc(C(=O)Nc2nncs2)cc1OCCN1CCCC1 , give the reported % protection MES 4 h.
output: 49.23

input: Could you tell me which % protection MES 4 h is on file for O=C(Nc1nncs1)c1cccc(OCCN2CCOCC2)c1 ?
output: 43.07

input: Any idea what its % protection MES 4 h is? The compound is COc1ccc(C(=O)Nc2nncs2)cc1OCCN(C)C
output: 72.30

input: Give the measured % protection MES 4 h of CCN(CC)CCOc1cccc(C(=O)Nc2nncs2)c1 .
output: 89.46

input: // % protection MES 4 h lookup, key: CCCC(CCC)C(=O)O [Sodium valproate, reference compound]
output: 63.07

input: Param item = O=C(Nc1nncs1)c1cccc(OCCN2CCCC2)c1 ; retrieve measured % protection MES 4 h.
output: 46.13

----------
Tested on: PTZ-induced seizures
Test: Subcutaneous pentylenetetrazole (sc-PTZ) test;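 further: percent reduction of the test group versus the control group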
Assay type: in vivo, male Swiss albino mice
Details: 100 mg/kg oral, 0.5 h
attribute_measured: % protection Sc-PTZ 0.5 h (%)
Quick reminder: number only, in %, skip the unit.

input: Quick check: % protection Sc-PTZ 0.5 h of O=C(Nc1nncs1)c1cccc(OCCN2CCCC2)c1 ?
output: 33.81

input: Bench note: what % protection Sc-PTZ 0.5 h did CN(C)CCOc1cccc(C(=O)Nc2nncs2)c1 show?
output: 32.39

input: Return reported % protection Sc-PTZ 0.5 h; argument: CCN(CC)CCOc1cc(C(=O)Nc2nncs2)ccc1OC
output: 53.27

input: Reported % protection Sc-PTZ 0.5 h, compound COc1ccc(C(=O)Nc2nncs2)cc1OCCN(C)C : ____
output: 43.07

input: Entry CCN(CC)CCOc1cccc(C(=O)Nc2nncs2)c1 has what % protection Sc-PTZ 0.5 h?
output: 58.30

input: Recorded % protection Sc-PTZ 0.5 h of CC(=O)Nc1nnc(S(N)(=O)=O)s1 [Acetazolamide, reference compound] , please.
output: 73.13

----------
Test system: MES-induced seizures
Experiment: Maximal electroshock-induced seizure (MES) test
Format: in vivo, male Swiss albino mice
Conditions: oral; lowest dose active in half or more of the mice; 4 h; n = 6
attribute_measured: Minimum active dose (mg/kg) MES 4 h
Respond numerically; units are mg/kg and should not be typed.

input: What measured Minimum active dose (mg/kg) MES 4 h goes with O=C(Nc1nncs1)c1cccc(OCCN2CCCCC2)c1 ?
output: 300

input: Name the reported Minimum active dose (mg/kg) MES 4 h value associated with the molecule CCN(CC)CCOc1cc(C(=O)Nc2nncs2)ccc1OC
output: 30

input: Find the recorded Minimum active dose (mg/kg) MES 4 h belonging to COc1ccc(C(=O)Nc2nncs2)cc1OCCN(C)C and report it.
output: 100

input: Could you tell me which Minimum active dose (mg/kg) MES 4 h is on file for COc1ccc(C(=O)Nc2nncs2)cc1OCCN1CCOCC1 ?
output: 300

input: Return reported Minimum active dose (mg/kg) MES 4 h; argument: CCN(CC)CCOc1cccc(C(=O)Nc2nncs2)c1
output: 30

input: What value of Minimum active dose (mg/kg) MES 4 h has been reported for the following molecule? CCCC(CCC)C(=O)O [Sodium valproate, reference compound]
output: 300

input: Which Minimum active dose (mg/kg) MES 4 h reading was recorded for the molecule COc1ccc(C(=O)Nc2nncs2)cc1OCCN1CCCCC1 ?
output: 300

input: Value lookup for Minimum active dose (mg/kg) MES 4 h; key = CN(C)CCOc1cccc(C(=O)Nc2nncs2)c1
output: 100

input: Sample O=C(Nc1nncs1)c1cccc(OCCN2CCOCC2)c1 — what was its Minimum active dose (mg/kg) MES 4 h?
output: 300

input: Please look up its Minimum active dose (mg/kg) MES 4 h: CC(=O)Nc1nnc(S(N)(=O)=O)s1 [Acetazolamide, reference compound]
output: 100

input: GET /values?readout=Minimum active dose (mg/kg) MES 4 h&item= O=C(Nc1nncs1)c1cccc(OCCN2CCCC2)c1
output: 100

input: Minimum active dose (mg/kg) MES 4 h for COc1ccc(C(=O)Nc2nncs2)cc1OCCN1CCCC1 ?
output: 100

// provenance: paper PMC11861159
